assay-text: PU-H71 tumor concentration predicted from [^124I]-PU-H71 PET (equation 1a, simulations)
measurement-conditions: mouse, tumor (MDA-MB-468), 75 mg/kg
property-measured: concentration at 24 h (µM)
# number only, unit µM dropped from output

Write down concentration at 24 h measured for item CC(C)NCCCn1c(Sc2cc3c(cc2I)OCO3)nc2c(N)ncnc21 [PU-H71]
5.51

###

assay-text: PU-H71 tumor concentration by LC-MS/MS
Assay type: in vivo, mice
measurement-conditions: mouse, tumor (MDA-MB-468); 75 mg/kg 1×week, 24 h after last dose; read-out: actual tumor concentration by LC-MS/MS
property-measured: concentration at 24 h (µM)
# number only, unit µM dropped from output

Write down concentration at 24 h measured for item CC(C)NCCCn1c(Sc2cc3c(cc2I)OCO3)nc2c(N)ncnc21
5.53
